Assay: MTT viability assay in 1G5 cells
Assay type: cell-based
Settings: human, 1G5 cells, 100 to 10,000 nM, up to 72 h, vs untreated mock control
viability values by entry

The recorded viability for CCCCCCCCCCCCCCCC(=O)OC[C@H](O)[C@H]1OC(=O)C(O)=C1O [6-AP, 6-O-Palmitoyl-L-ascorbic acid] is ≥ 92%

Briefly, viability measured for CCCCCCCCCCCCCCC(Br)C(=O)O (centres unmarked) [2-BP, 2-Bromohexadecanoic acid] : ≥ 92%

###

Target: gp120 (IIIB)-CD4 complex (Homo sapiens)
Construct: soluble extracellular portion of CD4 (sCD4); purchased ImmunoDiagnostics, Inc., MA
Test: gp120 capture ELISA, inhibition of gp120-CD4 complex formation
Type: binding, HIV-1
Settings: pKi (-log Ki, M), gp120 (IIIB), 50 nM biotin-sCD4, mean ± SD
metric: pKi
Quick note: pKi means taking -log10 of the concentration in moles per liter.

Per the records, this compound ( CCCCCCCCCCCCCCC(Br)C(=O)O (stereo not shown) ) has pKi equal to 6.92

From: paper PMC2921400
